biological target: human GLP-1 receptor (hGLP-1R) (Homo sapiens, UniProt P43220); construct: expressed in transfected cells; test: GLP-1 receptor assay, method A (CRE-luciferase reporter, BHK cells); format: cell-based; details: hGLP-1R Potency, no HSA, EC50, method A, absence of HSA
Sequence (P43220 24-463): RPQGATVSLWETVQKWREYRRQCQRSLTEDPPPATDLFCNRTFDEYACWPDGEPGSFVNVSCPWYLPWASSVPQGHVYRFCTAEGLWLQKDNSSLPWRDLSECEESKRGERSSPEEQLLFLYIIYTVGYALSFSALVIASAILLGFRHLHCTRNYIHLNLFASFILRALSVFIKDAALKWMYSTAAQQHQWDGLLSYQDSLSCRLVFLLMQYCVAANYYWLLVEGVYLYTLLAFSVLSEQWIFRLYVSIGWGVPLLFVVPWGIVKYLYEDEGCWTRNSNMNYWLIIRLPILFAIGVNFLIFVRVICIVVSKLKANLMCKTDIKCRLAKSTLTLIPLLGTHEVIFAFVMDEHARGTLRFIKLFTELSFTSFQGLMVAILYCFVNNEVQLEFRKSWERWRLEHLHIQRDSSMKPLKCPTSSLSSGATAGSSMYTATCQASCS
Numbered stars: 1 amine (or outer) side, 2 acyl side, 3 side chain; on linkers, the order of the positions; unused ones are H or OH. Square brackets hold non-standard residues; d marks the D form. Side chains are listed from the residue outwards. * marks the point of attachment. C20 diacid = O=C(O)CCCCCCCCCCCCCCCCCCC(=O)*; C18 diacid = O=C(O)CCCCCCCCCCCCCCCCC(=O)*; C16 diacid = O=C(O)CCCCCCCCCCCCCCC(=O)*; γGlu = O=C(O)[C@H](CCC(=O)[*:2])N[*:1]; AEEA = NCCOCCOCC(=O)O; Aib = CC(C)(N)C(=O)O
readoutLabel: pEC50
Answers are plain numbers, as −log10 of the molar value.

The cases that follow already have their pEC50 on record.
substance	reading
H[Aib]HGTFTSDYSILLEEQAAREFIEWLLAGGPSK([AEEA-AEEA-γGlu-C16 diacid])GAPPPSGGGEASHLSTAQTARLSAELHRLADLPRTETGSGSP-NH2 [Compound 61]	11.55
H[Aib]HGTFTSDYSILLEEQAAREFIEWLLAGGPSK([γGlu-C18 diacid])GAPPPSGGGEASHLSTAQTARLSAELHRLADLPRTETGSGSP-NH2 [Compound 112]	11.36

# return pEC50 for each item in the list
1. Y[Aib]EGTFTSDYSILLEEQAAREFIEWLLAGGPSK([γGlu-C20 diacid])GAPPPSGGGEASELSTAALGRLSAELHRLADLPRTETGSGSP-NH2 [Compound 41]
2. H[Aib]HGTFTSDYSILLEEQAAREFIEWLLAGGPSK([AEEA-AEEA-γGlu-C18 diacid])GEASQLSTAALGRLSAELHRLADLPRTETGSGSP-NH2 [Compound 43]
3. H[Aib]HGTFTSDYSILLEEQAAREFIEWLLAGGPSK([AEEA-AEEA-γGlu-C16 diacid])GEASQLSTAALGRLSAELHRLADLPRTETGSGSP-NH2 [Compound 62]
4. Y[Aib]EGTFTSDYSILLEEQAAREFIEWLLAGGPSSGAGQAPGQAPGASK([AEEA-AEEA-γGlu-C18 diacid])LSTAQTQRLSAELHRLATLPRTETGSGSP-NH2 [Compound 54]

[reply]
10.39
11.37
11.38
10.54
